Where these numbers come from: PubChem BioAssay AID720700

targetOrTestSystem: 1-phosphatidylinositol 4,5-bisphosphate phosphodiesterase gamma-1 (Homo sapiens) (UniProt P19174)
Sequence (P19174 whole entry, looked up): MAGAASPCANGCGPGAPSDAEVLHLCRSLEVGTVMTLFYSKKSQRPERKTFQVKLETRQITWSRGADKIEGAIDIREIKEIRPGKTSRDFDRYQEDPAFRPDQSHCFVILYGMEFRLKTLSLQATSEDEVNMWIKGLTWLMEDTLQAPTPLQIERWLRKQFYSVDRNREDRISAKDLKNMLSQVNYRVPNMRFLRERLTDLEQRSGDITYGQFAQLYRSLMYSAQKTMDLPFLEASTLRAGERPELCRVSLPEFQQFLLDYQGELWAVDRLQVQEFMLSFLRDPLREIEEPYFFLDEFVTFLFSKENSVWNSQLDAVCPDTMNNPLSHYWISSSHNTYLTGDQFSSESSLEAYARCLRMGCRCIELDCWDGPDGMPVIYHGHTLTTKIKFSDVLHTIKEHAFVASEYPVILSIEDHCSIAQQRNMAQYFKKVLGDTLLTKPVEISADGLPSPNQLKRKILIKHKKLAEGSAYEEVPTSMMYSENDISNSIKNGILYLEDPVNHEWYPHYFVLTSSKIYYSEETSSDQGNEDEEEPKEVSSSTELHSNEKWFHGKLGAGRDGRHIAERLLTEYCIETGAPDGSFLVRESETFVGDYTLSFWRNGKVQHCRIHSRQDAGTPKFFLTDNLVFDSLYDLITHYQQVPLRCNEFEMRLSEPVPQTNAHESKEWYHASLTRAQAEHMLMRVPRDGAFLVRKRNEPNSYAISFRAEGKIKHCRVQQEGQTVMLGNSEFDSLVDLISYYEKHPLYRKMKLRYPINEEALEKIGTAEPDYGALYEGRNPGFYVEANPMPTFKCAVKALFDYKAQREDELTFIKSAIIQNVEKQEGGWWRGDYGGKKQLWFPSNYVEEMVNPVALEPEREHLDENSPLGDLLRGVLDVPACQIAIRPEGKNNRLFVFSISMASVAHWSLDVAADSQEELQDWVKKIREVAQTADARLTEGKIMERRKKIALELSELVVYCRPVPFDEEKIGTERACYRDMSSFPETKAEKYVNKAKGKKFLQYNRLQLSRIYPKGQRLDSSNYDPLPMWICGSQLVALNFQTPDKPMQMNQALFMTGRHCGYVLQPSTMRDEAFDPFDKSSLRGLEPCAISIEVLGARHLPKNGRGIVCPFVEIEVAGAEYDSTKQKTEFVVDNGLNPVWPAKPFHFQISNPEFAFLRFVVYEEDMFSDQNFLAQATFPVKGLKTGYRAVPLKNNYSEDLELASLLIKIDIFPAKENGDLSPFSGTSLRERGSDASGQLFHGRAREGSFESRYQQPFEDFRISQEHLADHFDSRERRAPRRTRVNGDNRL
methodNotes: PLC-gamma1 enzyme inhibitors, primary screen, biochemical, fluorescence, purified enzyme (AID 720700)
recordedConditions: purified PLC-gamma1, fluorogenic substrate, at 12.2 µM, stronger effect = higher value
Screen size: about 370,000 compounds; about 3,100 (0.84%) were called active. The full list was thinned out, with actives kept by preference.
inhibition by entry:
Kindly provide the numeric value in % only, without the unit symbol.

# count of solved cases: 3
compound: COc1ccc(C(CNC(=O)c2cc(S(=O)(=O)Nc3cccc(C)c3)ccc2C)N2CCCC2)cc1 (stereo unspecified)
unitAbbrev: %
reported: 11

compound: COc1ccc(/C=C2\N=C3CCCN3C2=O)cc1
unitAbbrev: %
reported: 10.5

compound: COC(=O)[C@@]12CCCCC3=C1N(CCC3)C(=O)[C@H]2CC(=O)NCc1cccc2ccccc12
unitAbbrev: %
reported: 3.71

Req: Could you tell me which inhibition is on file for `S=c1[nH]nc(-c2cccnc2)n1/N=C/C(Cl)=C\c1ccccc1` ?
Resp: 12.7

====

targetOrTestSystem: 1-phosphatidylinositol 4,5-bisphosphate phosphodiesterase gamma-1 (Homo sapiens) (UniProt P19174)
methodNotes: PLC-gamma1 enzyme inhibitors, primary screen, biochemical, fluorescence, purified enzyme (AID 720700)
recordedConditions: purified PLC-gamma1, fluorogenic substrate, at 12.2 µM, stronger effect = higher value
Hit rate of the full screen: of about 370,000 compounds, about 3,100 (0.84%) were called active. What follows is part of a selection rich in actives, with near analogues and random picks from the rest.
measurementName: inhibition (%)
Kindly provide the numeric value in % only, without the unit symbol.

compound: COC(=O)C1CN(Cc2cn(Cc3ccc(F)cc3)nn2)CCS(=O)(=O)N1Cc1ccc(Cl)cc1 (configuration not stated)
unitAbbrev: %
reported: 0.64

Req: Could you tell me which inhibition is on file for `CC[C@@H](CCC(=O)N(c1ccccc1)c1ccccc1)C1CC1` ?
Resp: -1.13

Req: Could you tell me which inhibition is on file for `CN(C)S(=O)(=O)c1cccc(C(=O)OCC(=O)N2CCCC2=O)c1` ?
Resp: 1.6

Req: Could you tell me which inhibition is on file for `O=C(CSc1ncn[nH]1)Nc1nsc(-c2ccccc2)n1` ?
Resp: -3.65

Req: Could you tell me which inhibition is on file for `C=CCN(c1ccc(C(N)=O)cc1)S(C)(=O)=O` ?
Resp: 2.1

Req: Could you tell me which inhibition is on file for `C=CCN1C(=O)[C@@H](CC(=O)NCCCOCCCC)[C@]2(C(=O)OCC)CCCCC/C=C/12` ?
Resp: -1.4

Req: Could you tell me which inhibition is on file for COCCN(C(=S)Nc1cccc(Cl)c1C)C(C)c1ccco1 (configuration not stated) ?
Resp: 4.95

Req: Could you tell me which inhibition is on file for `O=C(CSc1ncn[nH]1)N/N=C/c1ccc(F)cc1` ?
Resp: 9.55

Req: Could you tell me which inhibition is on file for `COCCNc1nc(N)c([N+](=O)[O-])c(N2CCCCCC2)n1` ?
Resp: 7.3

Req: Could you tell me which inhibition is on file for `CC1(C)CC(=O)C=C(NCCCN2CCCC2=O)C1` ?
Resp: 1.47

Req: Could you tell me which inhibition is on file for O=C(NCCCN1CCCCC1)C1CC(=O)N(CCc2ccccc2)C1 (configuration not stated) ?
Resp: 10

Req: Could you tell me which inhibition is on file for `CCOc1ccc(-n2c(SCC(=O)Nc3cc(C)c(NC(=O)c4ccccc4)cc3OC)nnc2-c2cccc(Cl)c2)cc1` ?
Resp: -13.8

Req: Could you tell me which inhibition is on file for COCCCN(C(=S)Nc1c(C)cc(C)cc1C)C(C)c1ccncc1 (configuration not stated) ?
Resp: 12.6

Req: Could you tell me which inhibition is on file for `CN(C)Cc1cn(-c2ccc(-c3noc4c3C(=O)N(CC(=O)N3CCOCC3)CC4)cc2)nn1` ?
Resp: -16.7

Req: Could you tell me which inhibition is on file for CCC(C)[C@@H](C(=O)OC)N(CCc1cn(Cc2ccccc2)nn1)S(=O)(=O)c1ccccc1Br (some centres not stated) ?
Resp: 2.53

Req: Could you tell me which inhibition is on file for `O=C(CSc1nc2ccccc2n1Cc1ccccc1)NNC(=S)Nc1ccccc1` ?
Resp: 3.11

Req: Could you tell me which inhibition is on file for `CC1(C)CC(=O)C=C(NCCN2CCNCC2)C1` ?
Resp: 10.7

Req: Could you tell me which inhibition is on file for `C=CCN(c1ccc(Cl)cc1)S(=O)(=O)c1cccc(C(=O)OCC(=O)N(C)C)c1` ?
Resp: 14

Req: Could you tell me which inhibition is on file for COCCCNC(=O)C1CC(=O)N(CCc2ccccc2)C1 (configuration not stated) ?
Resp: 7.12

Req: Could you tell me which inhibition is on file for `COc1ccc(CCNC2=CC(=O)CC(C)(C)C2)cc1` ?
Resp: 1.19

Req: Could you tell me which inhibition is on file for O=C(OC12CCCN(C1)/C(=C/c1ccccc1)C2)c1ccco1 (configuration not stated) ?
Resp: 6.33

Req: Could you tell me which inhibition is on file for `O=C(CSc1ncn[nH]1)Nc1ccnc2ccccc12` ?
Resp: 0.33
